test-summary: AUC in dog at 10 mg/kg, iv
Format: ADME, organism-based, Canis lupus familiaris
Set-up: dose 10 mg/kg, route intravenous
test-context: plasma
measure-name: AUC (µg·h/mL)
Value expressed in µg·h/mL; do not type the unit.

Complete the entry with AUC for `NS(=O)(=O)c1ccc(NC(=O)CSc2nnc(Br)n2-c2ccc(C3CC3)c3ccccc23)c(Cl)c1`
20.9

###

test-summary: Half life in dog at 20 mg/kg, po
Format: ADME, organism-based, Canis lupus familiaris
Parameters: dose 20 mg/kg, route oral
test-context: in vivo
measure-name: half-life (h)
Value expressed in h; do not type the unit.

Complete the entry with half-life for `NS(=O)(=O)c1ccc(NC(=O)CSc2nnc(Br)n2-c2ccc(C3CC3)c3ccccc23)c(Cl)c1`
3.36

###

test-summary: Half life in dog at 10 mg/kg, iv
Format: ADME, organism-based, Canis lupus familiaris
Parameters: dose 10 mg/kg, route intravenous
test-context: in vivo
measure-name: half-life (h)
Value expressed in h; do not type the unit.

Complete the entry with half-life for `NS(=O)(=O)c1ccc(NC(=O)CSc2nnc(Br)n2-c2ccc(C3CC3)c3ccccc23)c(Cl)c1`
2.89

###

Catalogue of EC50 readings, one per entry.
System: Human immunodeficiency virus 1
test-summary: Antiviral activity against HIV1 isolate with RT G190A mutation
Type: functional, organism-based
Value expressed in nM; do not type the unit.

# sample-smiles, unit-string, quantitative-readout
rows = [
    ("NS(=O)(=O)c1ccc(NC(=O)CSc2nnc(Br)n2-c2ccc(C3CC3)c3ccccc23)c(Cl)c1", "nM", 0.19),
]

Please examine the following record next.
Complete the entry with EC50 for `O=C1Nc2ccc(Cl)cc2[C@@](C#CC2CC2)(C(F)(F)F)O1`
0.48

###

System: Human immunodeficiency virus 1
test-summary: Antiviral activity against wild type HIV1 NL4-3 in Hela-JC53 cells in the presence of 5% human serum after 48 hrs
Assay type: functional, organism-based
test-context: Human immunodeficiency virus 1, NL4-3, Hela-JC53, 48 h
measure-name: EC50 (nM)
Value expressed in nM; do not type the unit.

Report its EC50 with Human immunodeficiency virus 1 as the test system: `NS(=O)(=O)c1ccc(NC(=O)CSc2nnc(Br)n2-c2ccc(C3CC3)c3ccccc23)c(Cl)c1`
2.4

###

Test system: Human immunodeficiency virus 1
test-summary: Antiviral activity against HIV1 isolate with RT K101E mutant
Assay type: functional, organism-based
Catalogue of pEC50 readings, one per entry.
// field semantics: pEC50 = negative decimal log of concentration (mol/L)

# compound, pEC50
records = [
    ("O=C1Nc2ccc(Cl)cc2[C@@](C#CC2CC2)(C(F)(F)F)O1 [EFAVIRENZ]", 9.13),
]

Report its pEC50 with Human immunodeficiency virus 1 as the test system: `NS(=O)(=O)c1ccc(NC(=O)CSc2nnc(Br)n2-c2ccc(C3CC3)c3ccccc23)c(Cl)c1`
9.59

###

Test system: Human immunodeficiency virus 1
test-summary: Antiviral activity against HIV1 NL4-3 with Y188L mutation in Hela-JC53 cells in the presence of 20% human serum after 48 hrs
Assay type: functional, organism-based
test-context: Human immunodeficiency virus 1, NL4-3, Hela-JC53, 48 h
measure-name: EC50 (nM)
Value expressed in nM; do not type the unit.

Complete the entry with EC50 for `NS(=O)(=O)c1ccc(NC(=O)CSc2nnc(Br)n2-c2ccc(C3CC3)c3ccccc23)c(Cl)c1`
43.3

###

Test system: Human immunodeficiency virus 1
test-summary: Antiviral activity against HIV1 NL4-3 with Y188L mutation in Hela-JC53 cells after 48 hrs
Assay type: functional, organism-based
test-context: Human immunodeficiency virus 1, NL4-3, Hela-JC53, 48 h
measure-name: pEC50
// field semantics: pEC50 = negative decimal log of concentration (mol/L)

Complete the entry with pEC50 for `NS(=O)(=O)c1ccc(NC(=O)CSc2nnc(Br)n2-c2ccc(C3CC3)c3ccccc23)c(Cl)c1`
8.43

###

test-summary: Tmax in dog at 10 mg/kg, iv
Type: ADME, organism-based, Canis lupus familiaris
Design: dose 10 mg/kg, route intravenous
test-context: in vivo
measure-name: Tmax (min)
Value expressed in min; do not type the unit.

Complete the entry with Tmax for `NS(=O)(=O)c1ccc(NC(=O)CSc2nnc(Br)n2-c2ccc(C3CC3)c3ccccc23)c(Cl)c1`
16.8

###

Catalogue of EC50 readings, one per entry.
Tested on: Human immunodeficiency virus 1
test-summary: Antiviral activity against HIV1 isolate with RT K103N-K101Q mutation
Type: functional, organism-based
Value expressed in nM; do not type the unit.

# sample-smiles, assayed-system, unit-string, EC50
data = [
    ("O=C1Nc2ccc(Cl)cc2[C@@](C#CC2CC2)(C(F)(F)F)O1", "Human immunodeficiency virus 1", "nM", 12.7),
]

Report its EC50 with Human immunodeficiency virus 1 as the test system: `NS(=O)(=O)c1ccc(NC(=O)CSc2nnc(Br)n2-c2ccc(C3CC3)c3ccccc23)c(Cl)c1`
0.15

###

test-summary: Cmax in dog at 10 mg/kg, iv
Format: ADME, organism-based, Canis lupus familiaris
Design: dose 10 mg/kg, route intravenous
test-context: in vivo
measure-name: Cmax

Complete the entry with Cmax for `NS(=O)(=O)c1ccc(NC(=O)CSc2nnc(Br)n2-c2ccc(C3CC3)c3ccccc23)c(Cl)c1`
4420 ng/mL

Where these numbers come from: ChEMBL document CHEMBL1142195
